All values here come from patent US4952591A.

Each entry below carries its recorded Inhibition (%).
Tested on: 0.6 N HCl-induced gastric lesions
PROTOCOL: Gastric cytoprotection (0.6 N HCl-induced gastric lesions)
Format: in vivo, Male Donryu rats
ASSAY SETUP: Dose 50 mg/kg, p.o., an hour before 0.6 N HCl; lesion length
ATTRIBUTE MEASURED: Inhibition (%)

[
  {
    "MOLECULE": "CCNC(=O)NCCCOc1cccc(CN2CCCCC2)c1 [Example 16]",
    "UNIT TAG": "%",
    "VAL": 89.4
  },
  {
    "MOLECULE": "COc1ccc(NC(=O)NCCCOc2cccc(CN3CCCCC3)c2)cc1 [Example 1]",
    "UNIT TAG": "%",
    "VAL": 45.1
  },
  {
    "MOLECULE": "CC(C)NC(=O)NCCCOc1cccc(CN2CCCCC2)c1 [Example 54]",
    "UNIT TAG": "%",
    "VAL": 70.1
  },
  {
    "MOLECULE": "CCOc1ccc(NC(=O)NCCCOc2cccc(CN3CCCCC3)c2)cc1 [Example 51]",
    "UNIT TAG": "%",
    "VAL": 63.4
  }
]

----------
TEST SYSTEM: Histamine H2-receptor (Cavia porcellus, UniProt P47747)
Construct: The right atrium was dissected and suspended at 0.5 g tension in a 10 ml organ bath; from tissue; host or cells: isolated right atrium of male Hartley guinea-pigs
Sequence (P47747 whole entry): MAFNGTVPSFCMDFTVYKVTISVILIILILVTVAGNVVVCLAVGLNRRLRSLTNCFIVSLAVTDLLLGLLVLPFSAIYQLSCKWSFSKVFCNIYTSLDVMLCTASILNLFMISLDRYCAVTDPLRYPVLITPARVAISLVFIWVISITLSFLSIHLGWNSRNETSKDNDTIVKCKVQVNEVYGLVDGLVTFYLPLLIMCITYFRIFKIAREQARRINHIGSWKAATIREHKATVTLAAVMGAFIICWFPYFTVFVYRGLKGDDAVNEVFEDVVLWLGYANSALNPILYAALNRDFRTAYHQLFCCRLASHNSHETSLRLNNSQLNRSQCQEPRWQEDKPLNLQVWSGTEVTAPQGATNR
PROTOCOL: Histamine H2-receptor antagonism (isolated right atrium, positive chronotropic effect of histamine)
Set-up: species or system Male Hartley guinea-pigs
ASSAY SETUP: guinea-pig right atrium, 32±1° C., drugs added 5 minutes before histamine; read-out: pA2 (converted)

[
  {
    "COMPOUND": "CCOc1ccc(NC(=O)NCCCOc2cccc(CN3CCCCC3)c2)cc1 [Example 51]",
    "Kb (µM)": 0.251
  },
  {
    "COMPOUND": "CCNC(=O)NCCCOc1cccc(CN2CCCCC2)c1 [Example 16]",
    "Kb (µM)": 0.0661
  },
  {
    "COMPOUND": "CCCNC(=O)NCCCOc1cccc(CN2CCCCC2)c1 [Example 8]",
    "Kb (µM)": 0.0417
  },
  {
    "COMPOUND": "CNC(=O)NC/C=C\\COc1cccc(CN2CCCCC2)c1 [Example 29]",
    "Kb (µM)": 0.0355
  },
  {
    "COMPOUND": "COc1ccc(NC(=O)NCCCOc2cccc(CN3CCCCC3)c2)cc1 [Example 1]",
    "Kb (µM)": 0.263
  },
  {
    "COMPOUND": "CC(C)NC(=O)NCCCOc1cccc(CN2CCCCC2)c1 [Example 54]",
    "Kb (µM)": 0.0275
  }
]
